Test system: Enterobacter cloacae ATCC 27508
Assay: Antibacterial activity MIC, two-fold agar dilution
Assay type: cell-based
Details: ATCC27508; Enterobacter cloacae ATCC 27508; Muller-Hinton agar, 37° C., 20 hours; read-out: Antibacterial Activity MIC
Can you tell me MIC for the items I'm about to list?

Given the compound CO/N=C(\C(=O)N[C@@H]1C(=O)N2C(C(=O)O)=C(COC(C)=O)CS[C@H]12)c1csc(N)n1 [Cefotaxime, reference compound] , what is its reported MIC?
≤ 0.008 µg/mL

Also check CC[n+]1c(N)cc(SCC2=C(C(=O)[O-])N3C(=O)[C@@H](NC(=O)/C(=N\OCC(=O)O)c4csc(N)n4)[C@H]3SC2)nc1N [Compound I-18]
0.016 µg/mL

Also check CC[n+]1c(SCC2=C(C(=O)[O-])N3C(=O)[C@@H](NC(=O)/C(=N\OC)c4csc(N)n4)[C@H]3SC2)cc(N)nc1N [Compound I-8]
0.016 µg/mL

Also check CC[n+]1c(N)cc(SCC2=C(C(=O)[O-])N3C(=O)[C@@H](NC(=O)/C(=N\OC)c4csc(N)n4)[C@H]3SC2)nc1N [Compound I-22]
≤ 0.008 µg/mL

Also check CCO/N=C(\C(=O)N[C@@H]1C(=O)N2C(C(=O)[O-])=C(CSc3cc(N)nc(N)[n+]3C)CS[C@H]12)c1nsc(N)n1 [Compound I-5]
0.016 µg/mL

Also check CC[n+]1c(SCC2=C(C(=O)[O-])N3C(=O)[C@@H](NC(=O)/C(=N\OC(C)(C)C(=O)O)c4csc(N)n4)[C@H]3SC2)cc(N)nc1N [Compound I-2]
0.016 µg/mL

Also check C[n+]1c(SCC2=C(C(=O)[O-])N3C(=O)[C@@H](NC(=O)/C(=N\OC(C)(C)C(=O)O)c4csc(N)n4)[C@H]3SC2)cc(N)nc1N [Compound I-1]
0.016 µg/mL

Also check CC[n+]1c(SCC2=C(C(=O)[O-])N3C(=O)[C@@H](NC(=O)/C(=N\OC(C)C(=O)O)c4csc(N)n4)[C@H]3SC2)cc(N)nc1N (stereo partly drawn) [Compound I-4]
0.016 µg/mL

Also check C[n+]1c(N)cc(SCC2=C(C(=O)[O-])N3C(=O)[C@@H](NC(=O)/C(=N\OCC(=O)O)c4csc(N)n4)[C@H]3SC2)nc1N [Compound I-17]
0.016 µg/mL

Also check CCO/N=C(\C(=O)N[C@@H]1C(=O)N2C(C(=O)[O-])=C(CSc3cc(N)nc(N)[n+]3CC)CS[C@H]12)c1nsc(N)n1 [Compound I-6]
0.063 µg/mL

Also check CC[n+]1c(N)cc(SCC2=C(C(=O)[O-])N3C(=O)[C@@H](NC(=O)/C(=N\OC(C)C(=O)O)c4csc(N)n4)[C@H]3SC2)nc1N (stereo partly drawn) [Compound I-20]
0.016 µg/mL

Also check CO/N=C(\C(=O)N[C@@H]1C(=O)N2C(C(=O)[O-])=C(CSc3cc(N)[n+](C)c(N)n3)CS[C@H]12)c1csc(N)n1 [Compound I-21]
≤ 0.008 µg/mL

----------
Can you tell me MIC for the items I'm about to list?
Tested on: Shigella flexneri ATCC 11836
Just the number please, in µg/mL, no unit attached.

Given the compound CC[n+]1c(N)cc(SCC2=C(C(=O)[O-])N3C(=O)[C@@H](NC(=O)/C(=N\OC)c4csc(N)n4)[C@H]3SC2)nc1N [Compound I-22] , what is its reported MIC?
0.063

Also check CC[n+]1c(SCC2=C(C(=O)[O-])N3C(=O)[C@@H](NC(=O)/C(=N\OC(C)(C)C(=O)O)c4csc(N)n4)[C@H]3SC2)cc(N)nc1N [Compound I-2]
0.031

Also check C[n+]1c(N)nc(N)nc1SCC1=C(C(=O)[O-])N2C(=O)C(NC(=O)/C(=N\OC(C)(C)C(=O)O)c3csc(N)n3)[C@H]2SC1 (stereo partly shown) [Compound I-23]
0.063

Also check C#CCO/N=C(\C(=O)N[C@@H]1C(=O)N2C(C(=O)[O-])=C(CSc3cc(N)[n+](C)c(N)n3)CS[C@H]12)c1csc(N)n1 [Compound I-14]
0.063

Also check C#CCO/N=C(\C(=O)N[C@@H]1C(=O)N2C(C(=O)[O-])=C(CSc3cc(N)[n+](CC)c(N)n3)CS[C@H]12)c1csc(N)n1 [Compound I-15]
0.13

Also check CCO/N=C(\C(=O)N[C@@H]1C(=O)N2C(C(=O)[O-])=C(CSc3cc(N)[n+](C)c(N)n3)CS[C@H]12)c1nsc(N)n1 [Compound I-10]
0.031

Also check CCO/N=C(\C(=O)N[C@@H]1C(=O)N2C(C(=O)[O-])=C(CSc3cc(N)nc(N)[n+]3CC)CS[C@H]12)c1nsc(N)n1 [Compound I-6]
0.063

Also check CC[n+]1c(N)nc(N)nc1SCC1=C(C(=O)[O-])N2C(=O)C(NC(=O)/C(=N\OC(C)(C)C(=O)O)c3csc(N)n3)[C@H]2SC1 (stereo partly shown) [Compound I-24]
0.063

Also check CC(C)(O/N=C(\C(=O)N[C@@H]1C(=O)N2C(C(=O)[O-])=C(C[n+]3ccccc3)CS[C@H]12)c1csc(N)n1)C(=O)O [Ceftazidime, reference compound]
0.063

Also check CO/N=C(\C(=O)N[C@@H]1C(=O)N2C(C(=O)[O-])=C(CSc3cc(N)nc(N)[n+]3C)CS[C@H]12)c1csc(N)n1 [Compound I-7]
0.063

Also check C[n+]1c(SCC2=C(C(=O)[O-])N3C(=O)[C@@H](NC(=O)/C(=N\OC(C)(C)C(=O)O)c4csc(N)n4)[C@H]3SC2)cc(N)nc1N [Compound I-1]
0.031

Also check C[n+]1c(N)cc(SCC2=C(C(=O)[O-])N3C(=O)[C@@H](NC(=O)/C(=N\OCC(=O)O)c4csc(N)n4)[C@H]3SC2)nc1N [Compound I-17]
0.016

Also check CC(O/N=C(\C(=O)N[C@@H]1C(=O)N2C(C(=O)[O-])=C(CSc3cc(N)[n+](C)c(N)n3)CS[C@H]12)c1csc(N)n1)C(=O)O (stereo partly shown) [Compound I-19]
0.016

Also check CC[n+]1c(N)cc(SCC2=C(C(=O)[O-])N3C(=O)[C@@H](NC(=O)/C(=N\OC(C)(C)C(=O)O)c4csc(N)n4)[C@H]3SC2)nc1N [Compound I-13]
0.063

Also check CO/N=C(\C(=O)N[C@@H]1C(=O)N2C(C(=O)[O-])=C(CSc3cc(N)[n+](C)c(N)n3)CS[C@H]12)c1csc(N)n1 [Compound I-21]
0.016

Also check CC[n+]1c(N)cc(SCC2=C(C(=O)[O-])N3C(=O)[C@@H](NC(=O)/C(=N\OC(C)C(=O)O)c4csc(N)n4)[C@H]3SC2)nc1N (stereo partly shown) [Compound I-20]
0.016

Also check CC[n+]1c(N)cc(SCC2=C(C(=O)[O-])N3C(=O)[C@@H](NC(=O)/C(=N\OCC(=O)O)c4csc(N)n4)[C@H]3SC2)nc1N [Compound I-18]
0.016

Also check CO/N=C(\C(=O)N[C@@H]1C(=O)N2C(C(=O)O)=C(COC(C)=O)CS[C@H]12)c1csc(N)n1 [Cefotaxime, reference compound]
0.016

Also check CCO/N=C(\C(=O)N[C@@H]1C(=O)N2C(C(=O)[O-])=C(CSc3cc(N)[n+](CC)c(N)n3)CS[C@H]12)c1nsc(N)n1 [Compound I-11]
0.031

Also check CC[n+]1c(SCC2=C(C(=O)[O-])N3C(=O)[C@@H](NC(=O)/C(=N\OC(C)C(=O)O)c4csc(N)n4)[C@H]3SC2)cc(N)nc1N (stereo partly shown) [Compound I-4]
0.031

Also check CCO/N=C(\C(=O)N[C@@H]1C(=O)N2C(C(=O)[O-])=C(CSc3cc(N)nc(N)[n+]3C)CS[C@H]12)c1nsc(N)n1 [Compound I-5]
0.063

Also check CC(O/N=C(\C(=O)N[C@@H]1C(=O)N2C(C(=O)[O-])=C(CSc3cc(N)nc(N)[n+]3C)CS[C@H]12)c1csc(N)n1)C(=O)O (stereo partly shown) [Compound I-3]
0.031

Also check CC(C)(O/N=C(\C(=O)NC1C(=O)N2C(C(=O)[O-])=C(CSc3nc(N)nc(N)[n+]3-c3ccccc3)CS[C@H]12)c1csc(N)n1)C(=O)O (stereo partly shown) [Compound I-25]
0.13

Also check CC[n+]1c(SCC2=C(C(=O)[O-])N3C(=O)[C@@H](NC(=O)/C(=N\OC)c4csc(N)n4)[C@H]3SC2)cc(N)nc1N [Compound I-8]
0.063

Also check C[n+]1c(N)cc(SCC2=C(C(=O)[O-])N3C(=O)[C@@H](NC(=O)/C(=N\OC(C)(C)C(=O)O)c4csc(N)n4)[C@H]3SC2)nc1N [Compound I-12]
0.063
